List of remaining at 1 h values.
test: Metabolic stability test in plasma; format: in vitro ADME, human; details: unchanged form after 60 minutes at 37°C in human plasma, LC/MS; read-out: Remaining rate in human plasma (%/60min)
A number alone suffices; assume %.

A selection of reference data follows.
MOLECULE	MEASURED_QUANTITY	VALUE_REPORTED
CN(C)C(=O)c1cc(CCCC(=O)Oc2ccc(-c3nnn(C)n3)cc2)ccc1NC(=O)c1ccccc1-c1ccc(C(F)(F)F)cc1 [Compound 1-95]	remaining at 1 h	29
COC(=O)c1ccc(OC(=O)C2CCN(c3ccc(NC(=O)c4ccccc4-c4ccc(C(F)(F)F)cc4)c(C(=O)N(C)C)c3)CC2)cc1 [Compound 3-1]	remaining at 1 h	6
COC(=O)c1ccc(OC(=O)CCCc2ccc(NC(=O)c3ccccc3-c3ccc(C(F)(F)F)cc3)c(C(=O)N(C)C)c2)c(C(F)(F)F)c1 [Compound 1-20]	remaining at 1 h	0

Let us move to another entry and its remaining at 1 h.
Lookup: Request the reported remaining at 1 h associated with COC(=O)c1ccc(OC(=O)CCCc2ccc(NC(=O)c3ccccc3-c3ccc(C(F)(F)F)cc3)c(C(=O)N(C)C)c2)c(F)c1 [Compound 1-10]
Found: 0

----------
experiment: Metabolic stability test in liver S9; assay type: in vitro ADME; conditions: pH 7.4; unchanged form after 60 minutes at 37°C, human liver S9 2 mg protein/mL, LC/MS; read-out: Remaining rate in human liver S9 (%/60min)
MEASURED_QUANTITY: remaining at 1 h (%)
I only need the number, in %, no unit after it.

MOLECULE	remaining at 1 h [%]
COC(=O)c1ccc(OC(=O)CCCc2ccc(NC(=O)c3ccccc3-c3ccc(C(F)(F)F)cc3)c(C(=O)N(C)C)c2)c(OC)c1 [Compound 1-12]	0

Please turn your attention to the following entry.
Lookup: Requested field: remaining at 1 h. Item: CN(C)C(=O)c1cc(CCCC(=O)Oc2ccc(C(=O)OC3CCc4ccccc43)cc2)ccc1NC(=O)c1ccccc1-c1ccc(C(F)(F)F)cc1 (stereo not shown) [Compound 1-107]
Found: 3

----------
experiment: Metabolic stability test in plasma; type: in vitro ADME, human; conditions: unchanged form after 10 minutes at 37°C in human plasma, LC/MS; read-out: Remaining rate in human plasma (%/10min)
Recorded remaining at 10 min for the following compounds
Return type: number; implicit unit %.

Field: example entries. Status: answers known.
COMPOUND	MEASURED_QUANTITY	UOM	VALUE_REPORTED
COc1cc(C(=O)OC(C)C)cc(OC)c1OC(=O)CCCc1ccc(NC(=O)c2ccc(C)nc2-c2ccc(C(F)(F)F)cc2)c(C(=O)N(C)C)c1 [Compound 1-44]	remaining at 10 min	%	13
CCC(=O)c1ccc(OC(=O)CCCc2ccc(NC(=O)c3ccccc3-c3ccc(C(F)(F)F)cc3)c(C(=O)N(C)C)c2)cc1 [Compound 1-88]	remaining at 10 min	%	39
CCOC(=O)c1ccc(OC(=O)CCCc2ccc(NC(=O)c3ccccc3-c3ccc(C(F)(F)F)cc3)c(C(=O)N3CCCC3)c2)c(F)c1 [Compound 1-16]	remaining at 10 min	%	3
CN(C)C(=O)c1cc(CCCC(=O)Oc2ccc(C(=O)OCc3ccc(Cl)cc3)cc2)ccc1NC(=O)c1ccccc1-c1ccc(C(F)(F)F)cc1 [Compound 1-79]	remaining at 10 min	%	0

Lookup: Quick check: remaining at 10 min of CCCOC(=O)c1ccc(OC(=O)CCCc2ccc(NC(=O)c3ccccc3-c3ccc(C(F)(F)F)cc3)c(C(=O)N(C)C)c2)cc1 [Compound 1-8] ?
Found: 71

Lookup: Here is the next compound: Cc1ccc(C(=O)Nc2ccc(CCCC(=O)Oc3ccc(C(=O)OCc4cccnc4)cc3)cc2C(=O)N(C)C)c(-c2ccc(C(F)(F)F)cc2)n1 [Compound 1-94]
Found: 41

All figures here come from patent EP1803452A1.
